assay.overview: Metabolic stability in monkey hepatocytes
Type: in vitro ADME
run.conditions: cryopreserved hepatocytes, 45 min incubation at 37 °C
result.type: hepatocyte CLint at 2 µM
Express your answer as a number followed by its unit.

Q: What value of hepatocyte CLint at 2 µM has been reported for the following molecule? NCC(N)C(=O)Nc1ccc(-c2nc3ccccc3s2)cc1 (stereo not shown) [ETN101]
Result: 19 µL/min/1e6 cells

---

assay.overview: Metabolic stability in dog hepatocytes
Format: in vitro ADME
run.conditions: cryopreserved hepatocytes, scaled from Clint
result.type: CLint scaled at 2 µM (mL/min/kg)
Value expressed in mL/min/kg; do not type the unit.

Q: Entry under review: NCC(N)C(=O)Nc1ccc(-c2nc3ccccc3s2)cc1 (stereo not shown) . Reported CLint scaled at 2 µM?
Result: 84.6
